Assay: Cell Viability - LYMP2-017 (AID 972);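 further: cells exposed to compound for 24 hours at 37 °C; on the % scale 0 is the no-effect control and ±100 the full control effect; nearly all actives have a fitted effect of over 55% in size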
Conditions: LYMP2-017 lymphoblastoid cell viability; series mostly up to 92.2 µM
Records with an inconclusive call do not appear. Calls of active or inactive are those of the source. The call rests on the fitted dose curve; in most records, active means well fitted cell-killing curve with a large enough effect; inconclusive means small, poorly fitted or top-dose-only effect; inactive means flat fitted curve, though single readings scatter.
readout: outcome

C=CC(C)(O)CCC=C(C)C (stereo not given) | inactive
CC1=CC(=O)CC(C)(C)C1(O)/C=C/C(C)=C\C(=O)O (stereo not given) | inactive
COS(C)(=O)=O | inactive
CN(C)CCOC(c1ccccc1)c1ccccc1 (tested in a mixture with another compound) | inactive

Okay, next one:
Query string: Given the entry Cc1occc(=O)c1O , report its measured outcome.
Result string: inactive

---

Assay: qHTS Assay for Lipid Storage Modulators (AID 1519); further: on the % scale 0 is the no-effect control and ±100 the full control effect
Details: Drosophila S3 cells, BODIPY lipid droplet/cell ratio, laser cytometry; at 57.5 µM (top of the series); cells loaded with oleic acid
Results filed as inconclusive are left out. Calls of active or inactive are those of the source. Calls come from the whole dose curve.
readout: activity change, negative = inhibition

In the examples that follow, each entry is paired with its recorded activity change, negative = inhibition.
COc1ccc(-n2c(=O)c(CCc3ccccc3)nc3cnc(N4CCN(C)CC4)nc32)cc1 | 2.13% (inactive)
CN1CCC2(CC1)CCN(S(=O)(=O)c1ccccc1)CC2 | -2.86% (inactive)
O=C(c1ccncc1)N1CCC2(CCN(Cc3nccs3)CC2)CC1 | -1.51% (inactive)
COc1ccc(C(=O)N2CCC3(CCCN(C(=O)Nc4cccc(C#N)c4)C3)CC2)cc1 | 3.86% (inactive)
CC(=O)N1CCC2(CC1)CCN(c1ccncc1)CC2 | -1.07% (inactive)

Hey, can you go through the list below and give me activity change, negative = inhibition for every item?
1. O=C(c1csnn1)N1CCC2(CCN(Cc3ccccc3)CC2)CC1
2. O=C(c1ccncc1)N1CCC2(CCN(Cc3ccncc3)CC2)CC1

Result string:
1: -4.6% (inactive); 2: 4.23% (inactive)

Hey, can you go through the list below and give me activity change, negative = inhibition for every item?
1. Cc1noc(C)c1C(=O)N1CCC2(CC1)CN(Cc1cc(C(F)(F)F)cc(C(F)(F)F)c1)C2
2. COc1ncc2nc(-c3cccs3)c(=O)n(C)c2n1

Result string:
-4.32% (inactive)
6% (inactive)

Hey, can you go through the list below and give me activity change, negative = inhibition for every item?
1. Clc1ccccc1-c1cncnc1NCCN1CCOCC1
2. Cn1cccc1C(=O)N1CCC2(CC1)CN(C(=O)Nc1cccc(C#N)c1)C2

Result string:
["1.35% (inactive)", "4.61% (inactive)"]
